# condition-parameters: buffer; pH 7.4; 200.0 µM
Item-by-item account of solubility kinetic

Here are 3 compounds together with their reported answers.
• CCN1C(=O)CS/C1=N\S(=O)(=O)c1ccccc1 = > 42.7 µg/mL
• O=C(NC1CC1)c1cccc(S(=O)(=O)N2CCOCC2)c1 = > 46.6 µg/mL
• Cc1ccc(C2(CCNCc3ccco3)CCOC(C(C)C)C2)cc1 (centres undefined) = > 51.2 µg/mL

Continue with the next compound.
Need solubility kinetic, item Cn1c(SCC(=O)Nc2ccc(Cl)cc2)nc(O)cc1=O
> 48.9 µg/mL

###

# condition-parameters: buffer; pH 7.4; 200.0 µM
Lab note: anything with solubility kinetic at or over 40 µg/mL counts as y; the rest go in n.

# example entries with known answers
* COc1ccc(C(=O)Nc2cnccn2)cc1[N+](=O)[O-] | n
* O=C(NN=Cc1cc(Br)c(O)c(Br)c1)c1ccccc1NS(=O)(=O)c1cccs1 | y
* CCN(CC)CC(=O)c1c(N)n(Cc2ccccc2)c(=O)n(C)c1=O | y
* CCOC(=O)C1(Cc2cccc(F)c2)CCN(C(=O)c2ccoc2C)CC1 | y
* COC(=O)c1cccc(Nc2ccc([N+](=O)[O-])cn2)c1 | n

Consider the additional molecule presented here.
Please tell me: is the molecule CC(C1CC1)N(Cc1ccccc1)C(=S)Nc1ccccc1Cl (stereo not given) at or over 40 µg/mL in terms of solubility kinetic?
n

###

Here, each record is paired with measured solubility kinetic data.
# condition-parameters: buffer; pH 7.4; 200.0 µM

// solubility kinetic lookup, key: COc1ccc(CCNC(=O)c2ccc(=O)[nH]c2)cc1OC
> 45.3 µg/mL

What does the record list as solubility kinetic for O=C(O)c1ccc(N=Cc2c(O)[nH]c(=O)[nH]c2=O)cc1 ?
> 41.3 µg/mL

###

Entries and their measured solubility kinetic follow.
# condition-parameters: buffer; pH 7.4; 200.0 µM

Answered examples (3):
- FC(F)(F)c1ccc(Cl)c(-n2c(-c3ccco3)n[nH]c2=S)c1: > 51.9 µg/mL
- CC1(C)CC(NC(=O)Cc2ccc(Cl)cc2)CC(C)(C)N1: > 46.3 µg/mL
- Cc1c(C(=O)C(=O)NCCCn2ccnc2)c2ccccc2n1C: > 48.7 µg/mL

Param item = Cc1cccc(C(=O)N[C@@H](C)C(=O)N2CCN(c3ncccn3)CC2)c1 ; retrieve measured solubility kinetic.
> 53 µg/mL

Find the recorded solubility kinetic belonging to O=C(Nc1ccccc1N1CCCC1)c1cccc(F)c1 and report it.
> 42.6 µg/mL

###

# condition-parameters: buffer; pH 7.4; 200.0 µM
Measured solubility kinetic of individual entries

Consider the following illustrative entries.
- COc1ccc(CNC(=O)c2sccc2C)cc1: > 39.2 µg/mL
- O=S1(=O)CCN(Cc2ccc(F)cc2)CC1: > 36.5 µg/mL
- Cc1cc(=O)[nH]c(Nc2cccc(F)c2)n1: > 32.9 µg/mL
- CC(=O)N1CCN(c2ccccc2NC(=O)c2cccs2)CC1: > 49.4 µg/mL

Consider the record given below.
Please look up its solubility kinetic: COC(=O)c1ccc(NC(=O)CCC(=O)c2ccc(F)cc2)cc1
< 0.7 µg/mL

###

# condition-parameters: buffer; pH 7.4; 200.0 µM
quantity-measured: solubility kinetic (µg/mL)
Report the figure in µg/mL without appending any unit label.

Would you please look over these solved cases?
* COc1ccc(NC(=O)c2cc([N+](=O)[O-])ccc2N2CCCCC2)cc1 | 0.3
* CCCc1cc(=O)[nH]c(SCC(=O)NC2CCCCCCC2)n1 | 14.5
* O=C(Cc1cccc2ccccc12)NCCc1ccccc1 | 7.1
* COc1ccccc1N1C(=O)C(Cl)=C(N2CCCC2)C1=O | 9.4

Given the compound Cc1cccc(NC(=O)C(=O)NCCCN2CCOCC2)c1 , what is its reported solubility kinetic?
41.9

Look at this compound and give its reported solubility kinetic. NC(=O)COc1ccc2cc(-c3ccccc3)c(=O)oc2c1
3.8

Look at this compound and give its reported solubility kinetic. CCN(CC)CCN(C(=O)c1ccc2ccccc2c1)c1nc2ccc(OC)cc2s1.Cl
14.2

Request the reported solubility kinetic associated with O=C1CCCN1CC1CCN(Cc2nc(CC3CC3)no2)CC1
42.9

###

We begin with a simple list: items and their reported solubility kinetic.
# condition-parameters: buffer; pH 7.4; 200.0 µM

Worked examples, 4 compounds total:
• C/C(CC(=O)Nc1ccccn1)=N\NC(=O)c1cnccn1 = > 44.7 µg/mL
• COCCOC(=O)C(CC(=O)O)NCc1ccco1 (stereo unspecified) = > 40.7 µg/mL
• Cc1csc(SCC(=O)Nc2nncs2)n1 = > 40.9 µg/mL
• CN(C)c1cc[n+](CC(=O)Nc2ccccc2C(F)(F)F)cc1.[Cl-] = > 54 µg/mL

Fill in the blank: the reported solubility kinetic of CC(=O)C1C(c2ccccc2)c2c(noc2C)CC1(C)O (stereo unspecified) is ____.
> 42.8 µg/mL

# query: solubility kinetic of entry Cn1cccc1C(=O)N1CCc2ccccc2C1
> 36 µg/mL

###

Here the recorded solubility kinetic is given for each entry.
# condition-parameters: buffer; pH 7.4; 200.0 µM

Recorded solubility kinetic, per entry:
- COc1ccc(NC(=O)CSc2ccc3c(c2)OCCO3)cc1S(N)(=O)=O: > 61.6 µg/mL
- Cc1cc([N+](=O)[O-])ccc1NC(=O)CCC(=O)N1CCCCC1: > 47.9 µg/mL

Param item = Cc1ccc([N+](=O)[O-])cc1N(CC(=O)N1CCCCC1)S(C)(=O)=O ; retrieve measured solubility kinetic.
> 53.3 µg/mL

Which value of solubility kinetic has been reported for COc1cccc(NC(=O)C2=COCCO2)c1 in the records?
> 35.3 µg/mL

What does the data say about its solubility kinetic? Entry: CCOc1ccc(C(=O)NCC(=O)N2CCCCCCC2)cc1
> 47.8 µg/mL

###

Collected solubility kinetic values appear next to each entry.
# condition-parameters: buffer; pH 7.4; 200.0 µM

Please give the measured solubility kinetic for this molecule: Cn1cncc1COC(=O)c1ccc(Cl)cc1
> 37.6 µg/mL

Please look up its solubility kinetic: CC(=O)Nc1nonc1NC(=O)COc1ccccc1
> 41.4 µg/mL

Form field: reported solubility kinetic of O=c1c(Cc2ccc(F)cc2)c(O)ccn1CCc1ccccn1
> 48.7 µg/mL

###

# condition-parameters: buffer; pH 7.4; 200.0 µM
quantity-measured: solubility kinetic

Reference set (2 entries):
- O=C(Cc1ccsc1)Nc1ccc2c(c1)OCO2: > 39.2 µg/mL
- O=C(COC(=O)c1cccnc1Cl)NCC1CCCO1 (stereo unspecified): > 44.8 µg/mL

Field request: solubility kinetic | item: NC(=O)C1CCN(C(=O)COc2ccc3c4c(c(=O)oc3c2)CCCC4)CC1
> 57.7 µg/mL

Which solubility kinetic value is on record for COc1ccc(CNC(=O)COC(=O)c2cc(S(=O)(=O)N3CCOCC3)ccc2O)cc1OC ?
> 74.2 µg/mL

I would be grateful if you could share the reported solubility kinetic for O=C(O)c1ccc(-n2cc(C(=O)c3ccccc3O)cn2)cc1 .
> 46.2 µg/mL

Tell me the measured solubility kinetic of Cc1cc(C)nc(NC(=O)NC(=O)c2ccccc2)n1 , please.
> 40.5 µg/mL

Param item = COc1ccc(NC(=O)N2C[C@@H]3C[C@@H](C2)c2cccc(=O)n2C3)cc1 ; retrieve measured solubility kinetic.
> 50.9 µg/mL

# input molecule: COc1ccc(C(=O)O/N=C2\CCS(=O)(=O)c3sccc32)cc1 ; wanted: its solubility kinetic
< 0.8 µg/mL

So what does the record say about solubility kinetic for COc1cc2ccccc2cc1C(=O)Nc1ccc2oc(=O)ccc2c1 ?
< 0.7 µg/mL

// query solubility kinetic value for entry COc1ccccc1-n1cccc1C=O
> 30.2 µg/mL

Any idea what solubility kinetic was measured for COc1cc(Oc2ccccc2)nc(N)n1 ?
> 32.6 µg/mL

###

# condition-parameters: buffer; pH 7.4; 200.0 µM
Each item that follows carries a reported solubility kinetic.

// worked examples, solubility kinetic included
* Cc1ccccc1C(=O)Nc1ccc2c(c1)OCCO2 | > 40.4 µg/mL
* O=C(NNC(=O)C1CCC1)c1ccccc1 | > 32.7 µg/mL
* COC(=O)CNC(=O)C1CC(=O)N(CCc2ccc(F)cc2)C1 (stereo not given) | > 48.4 µg/mL
* CN1CCN(C(=S)Nc2ccc(S(N)(=O)=O)cc2)CC1 | > 47.2 µg/mL
* Cc1ccc(C)c(NCC(O)c2ccccc2)c1 (stereo not given) | > 36.2 µg/mL

Data request, read-out solubility kinetic, for CC(=O)c1cccc(NC(=O)c2ccc(OC3CSC3)cc2)c1
< 0.7 µg/mL

###

# condition-parameters: buffer; pH 7.4; 200.0 µM
quantity-measured: solubility kinetic

Given the compound CN1CC(=O)N(CC(=O)Nc2cccc3ccccc23)C1=O , what is its reported solubility kinetic?
> 44.6 µg/mL

Find the recorded solubility kinetic belonging to CC(C)(C)C(=O)CN1C(=O)NC2(CCCc3ccccc32)C1=O (stereo not given) and report it.
> 47.2 µg/mL

Which solubility kinetic value is on record for O=C(COC(=O)CN1C(=O)c2ccccc2C1=O)Nc1ccccc1 ?
> 50.7 µg/mL

Query (compound): CCCc1nnc(SCC(=O)Nc2nccs2)o1 ; field requested: solubility kinetic
> 42.7 µg/mL

// returns reported solubility kinetic for input O=C(Nc1cccnc1N1CCOCC1)c1cccs1
> 43.4 µg/mL

Which solubility kinetic value belongs to O=C1CC(c2ccccc2)CC(O)=C1C=NCc1ccncc1 (stereo not given) ?
> 46 µg/mL

What solubility kinetic value was documented for this compound, O=C(NCCc1ccc(Cl)cc1)C1CCCO1 (stereo not given) ?
> 38.1 µg/mL
